experiment: Rat pharmacokinetics, unbound brain concentrations; format: in vivo, Sprague-Dawley rats; conditions: male, Sprague-Dawley, rat, brain (unbound), subcutaneous, 10 mg/kg
READOUT NAME: concentration at 24 h (nM)
Lab book: enter the figure in nM, no units written.

In: Reported concentration at 24 h, compound FC(F)(F)c1ccc2c(c1)[C@@H]1CNC[C@H]2C1 : ____
Out: 85

###

molecular target: human α3β4 nAChRs (Homo sapiens, UniProt P30926+P32297); assay type: cell-based; settings: Inhibition IC50, α3β4; 2 min pre-application, 30 μM ACh challenge
Sequence (P32297 32-505): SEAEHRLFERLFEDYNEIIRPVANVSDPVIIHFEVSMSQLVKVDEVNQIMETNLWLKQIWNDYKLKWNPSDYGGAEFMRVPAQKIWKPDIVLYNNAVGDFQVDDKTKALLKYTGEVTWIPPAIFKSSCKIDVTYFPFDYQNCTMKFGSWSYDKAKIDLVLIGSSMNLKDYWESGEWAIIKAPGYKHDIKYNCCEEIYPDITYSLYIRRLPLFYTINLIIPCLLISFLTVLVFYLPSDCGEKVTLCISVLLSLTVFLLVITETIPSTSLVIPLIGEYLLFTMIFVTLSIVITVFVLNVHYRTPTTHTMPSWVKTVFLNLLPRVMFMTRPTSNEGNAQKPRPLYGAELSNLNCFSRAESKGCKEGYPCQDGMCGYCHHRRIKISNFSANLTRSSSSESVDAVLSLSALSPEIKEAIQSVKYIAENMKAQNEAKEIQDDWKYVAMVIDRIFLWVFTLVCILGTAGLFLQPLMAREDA
Sequence (P30926 22-498): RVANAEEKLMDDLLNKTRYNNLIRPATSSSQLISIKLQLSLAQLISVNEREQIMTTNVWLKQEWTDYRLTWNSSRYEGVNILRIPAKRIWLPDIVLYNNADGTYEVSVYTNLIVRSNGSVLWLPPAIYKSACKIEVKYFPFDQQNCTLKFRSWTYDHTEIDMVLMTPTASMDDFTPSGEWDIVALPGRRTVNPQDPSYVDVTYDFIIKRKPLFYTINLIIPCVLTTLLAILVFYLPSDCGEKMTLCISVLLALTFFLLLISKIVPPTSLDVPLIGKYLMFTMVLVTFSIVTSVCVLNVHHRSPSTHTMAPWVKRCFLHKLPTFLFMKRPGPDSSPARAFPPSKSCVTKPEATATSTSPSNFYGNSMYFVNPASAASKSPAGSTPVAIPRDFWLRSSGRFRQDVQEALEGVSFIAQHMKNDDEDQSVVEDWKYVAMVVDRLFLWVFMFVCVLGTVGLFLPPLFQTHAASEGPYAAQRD
READOUT NAME: IC50 (nM)
// note: answer is a bare numeric in nM

In: Report IC50 for FC(F)(F)c1ccc2c(c1)[C@@H]1CNC[C@H]2C1 please.
Out: 257
